Entry source: patent US20260242478A1

Target: Anti-CD28 Fab (SEQ ID NOs: 696, 697)
Sequence (VH, as listed by the source, chain 1 of 2): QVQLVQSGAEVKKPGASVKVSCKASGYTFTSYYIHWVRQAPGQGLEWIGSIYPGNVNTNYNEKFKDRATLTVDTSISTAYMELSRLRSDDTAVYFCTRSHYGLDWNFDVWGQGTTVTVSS
Sequence (VL, as listed by the source, chain 2 of 2): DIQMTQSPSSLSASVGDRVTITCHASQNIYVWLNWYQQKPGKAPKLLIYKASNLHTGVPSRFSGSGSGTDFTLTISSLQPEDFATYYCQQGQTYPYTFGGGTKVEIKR
Assay: phage binding ELISA; biotinylated anti-CD28 Fab on neutravidin plate, clonal phage supernatant, anti-M13 HRP detection;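 also: wells pretreated with blocking buffer, either plus or minus CD28 antigen, then given crude phage supernatant briefly without washing in between, then washed before anti-M13 HRP readout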
Where no end group is shown, it is not given here.
result_type: Anti-CD28 Fab (SEQ ID NOs: 696, 697) signal

| binder | measured_number |
| --- | --- |
| TCAAGATYEWPYCF [Phage-1427] | 1.96 |
| SCAAVFSYSWPMCF [Phage-1420] | 1.99 |
| LCAEFFNYPWPLCL [Phage-1422] | 1.98 |
| TCAAGAAYTWPACF [Phage-1429] | 1.96 |
| TCAAGAHYTWPECF [Phage-1419] | 1.99 |
| WCAAVFSYTWSPCL [Phage-1428] | 1.96 |
| MCSAGANYPWPWCL [Phage-1426] | 1.97 |
| MCAAGAHYTWPTCL (cysteine pairing not given here; also: fused to phage pIII protein) [Phage-1424] | 1.97 |
| TCAAGATYSWPWCF [Phage-1418] | 1.99 |
| TCAAGATYEWPTCL [Phage-1430] | 1.96 |
| QCSAGAAWPWPFCL [Phage-1423] | 1.97 |
| TCSAGATYEWPWCM [Phage-1425] | 1.97 |
| MCAAGATYPWPLCL (cysteine pairing not given here; also: fused to phage pIII protein) [Phage-1417] | 1.99 |
| SCAAGATYSWPMCL [Phage-1421] | 1.99 |
